// data source = patent US20250304587A1

System: plasma protein
Assay: Plasma protein binding (equilibrium dialysis), rat
Format: in vitro ADME
Conditions: 1 μM, 5 h dialysis
Measured Plasma Protein binding (PPB) Rat by item
Please state the figure in %; there is no need to write the unit.

Here are 5 compounds together with their reported answers.
| COMPOUND | UOM | Plasma Protein binding (PPB) Rat |
| --- | --- | --- |
| [2H][C@]1(O)c2nc(-n3c4nc(Nc5ccc(N6CCC7(CCN(C)CC7)CC6)cc5)ncc4c(=O)n3CC=C)ccc2CCC12CC2 [Compound 37b] | % | 84.10 |
| C=CCn1c(=O)c2cnc(Nc3ccc(N4C[C@H]5CN(C)C[C@H]5C4)cc3)nc2n1-c1ccc2c(n1)C(O)(CC)C1(CC1)C2 (stereo partly drawn) [Compound 28] | % | 86.08 |
| C=CCn1c(=O)c2cnc(Nc3ccc(N4CCN(C)CC4)cc3)nc2n1-c1ccc2c(n1)[C@H](O)C1(CC2)CC1 (single isomer, unassigned) [Compound 4b] | % | 77.45 |
| [2H][C@]1(O)c2nc(-n3c4nc(Nc5ccc(N6CCC7(CCN(C)CC7)CC6)c(C)c5)ncc4c(=O)n3CC=C)ccc2CCC12CC2 [Compound 61b] | % | 93.61 |
| C=CCn1c(=O)c2cnc(Nc3ccc(N4CCC5(CCN(C)CC5)CC4)cc3)nc2n1-c1ccc2c(n1)[C@](C)(O)C1(CC2)CC1 (racemic) [Compound 44] | % | 96.98 |

Consider the additional compound presented here.
So for C=CCn1c(=O)c2cnc(Nc3ccc(N4CC5CC(C4)N5C)cc3)nc2n1-c1ccc2c(n1)[C@@](C)(O)C1(CC2)CC1 [Compound 7a] , the logged Plasma Protein binding (PPB) Rat turned out to be 94.82
